From: patent US8618299B2

Structures can show the parent of a compound that is named as a salt.
assay-endpoint: melting point

* Cc1ccc(-c2ccn(-c3ccc4c5c(n(C)c4c3)CC3CCCCN3C5)c(=O)c2)cn1 (stereo not shown) (as salt: hydrochloride) [Example 35, Dihydrochloride] | 256 to 260 °C
* Cl.Cn1c2c(c3ccc(-n4ccc(OCc5ccc(F)cn5)cc4=O)cc31)CN1CCCCC1C2 (single isomer, unassigned; (-)) [Example 38] | 270 to 280 °C
* Cn1c2c(c3ccc(-n4ccc(OCc5ccc(F)cn5)cc4=O)cc31)C1CCCCN1CC2 (stereo not shown) (as salt: hydrochloride) [Example 21] | 256 to 258 °C
* Cl.Cn1c2c(c3ccc(-n4ccc(OCc5ccccc5)cc4=O)cc31)CCN1CCCC21 (single isomer, unassigned; (-)) [Example 3] | 224 to 228 °C
* Cl.Cn1c2c(c3ccc(-n4ccc(OCc5ccc(F)cn5)cc4=O)nc31)CN1CCCC1C2 (stereo not shown) [Example 51] | 220 to 230 °C

Prompt line: Quick check: melting point of Cl.Cn1c2c(c3ccc(-n4ccc(-c5ccc(C(F)(F)F)cc5)cc4=O)nc31)CN1CCCC1C2 (stereo not shown) [Example 52] ?
Response line: 300 to 305 °C

Prompt line: Quick check: melting point of Cn1c2c(c3ccc(-n4ccc(OCc5ccc(F)cn5)cc4=O)cc31)CN1CCCCC1C2 (stereo not shown) (as salt: hydrochloride) [Example 37, Dihydrochloride] ?
Response line: 235 to 238 °C

Prompt line: Quick check: melting point of Cl.Cn1c2c(c3ccc(-n4ccc(OCc5ncc(F)cc5F)cc4=O)nc31)CN1CCCC1C2 (stereo not shown) [Example 56] ?
Response line: 220 to 230 °C

Prompt line: Quick check: melting point of Cl.O=c1cc(-c2ccc(C(F)(F)F)cc2)ccn1-c1ccc2c3c([nH]c2c1)CCN1CCCC31 (stereo not shown) [Example 26] ?
Response line: 280 to 290 °C

Prompt line: Quick check: melting point of Cl.Cn1c2c(c3ccc(-n4ccc(OCc5ccc(C(F)(F)F)nc5)cc4=O)cc31)CN1CCCC1C2 (stereo not shown) [Example 32] ?
Response line: 255 to 259 °C

----------
Where a name gives a salt, the structure may show the parent alone.
assay-endpoint: melting point

Consider the worked cases shown below.
* Cc1ccc(-c2ccn(-c3ccc4c5c(n(C)c4c3)CC3CCCN3C5)c(=O)c2)cn1 (stereo not drawn) (as salt: hydrochloride) [Example 13] | 305 °C (dec.)
* Cc1ccc(COc2ccn(-c3ccc4c5c(n(C)c4c3)CCN3CCCC53)c(=O)c2)cn1 (stereo not drawn) (as salt: hydrochloride) [Example 20, Dihydrochloride] | 280 to 282 °C

Prompt line: Quick check: melting point of Cc1ccc(COc2ccn(-c3ccc4c5c(n(C)c4c3)CC3CCCCN3C5)c(=O)c2)cn1 (stereo not drawn) (as salt: hydrochloride) [Example 33, Dihydrochloride] ?
Response line: 270 to 272 °C

----------
Where a name gives a salt, the structure may show the parent alone.
Recorded melting point for the following molecules

* Cl.Cn1c2c(c3ccc(-n4ccc(OCc5ccc(F)cc5F)cc4=O)nc31)C1CCCN1CC2 (stereo not drawn) | 134 to 145 °C
* Cc1ccc(-c2ccn(-c3ccc4c5c(n(C)c4c3)CCN3CCCC53)c(=O)c2)cn1 (stereo not drawn) (as salt: hydrochloride) | 280 to 283 °C
* Cl.Cn1c2c(c3ccc(-n4ccc(-c5ccc(C(F)(F)F)nc5)cc4=O)cc31)C1CCCN1CC2 (stereo not drawn) | 235 to 240 °C
* Cc1ccc(COc2ccn(-c3ccc4c5c(n(C)c4c3)CC3CCCN3C5)c(=O)c2)cn1 (stereo not drawn) (as salt: hydrochloride) | 260 to 263 °C
* Cl.Cn1c2c(c3ccc(-n4ccc(OCc5ccc(Cl)cc5F)cc4=O)nc31)CN1CCCC1C2 (stereo not drawn) | 210 to 220 °C

Prompt line: Quick check: melting point of Cl.Cn1c2c(c3ccc(-n4ccc(-c5ccc(Cl)cn5)cc4=O)cc31)CCN1CCCCC21 (stereo not drawn) ?
Response line: 210 to 213 °C

Prompt line: Quick check: melting point of Cl.Cn1c2c(c3ccc(-n4ccc(-c5ccc(C(F)(F)F)cc5)cc4=O)nc31)C1CCCN1CC2 (stereo not drawn) ?
Response line: 190 to 200 °C

Prompt line: Quick check: melting point of Cn1c2c(c3ccc(-n4ccc(OCc5ccc(F)cn5)cc4=O)cc31)CCN1CCCC21 (stereo not drawn) (as salt: hydrochloride) [Example 43, Dihydrochloride] ?
Response line: 290 to 293 °C

Prompt line: Quick check: melting point of Cl.Cn1c2c(c3ccc(-n4ccc(-c5ccc(C(F)(F)F)nc5)cc4=O)nc31)CN1CCCC1C2 (stereo not drawn) ?
Response line: 280 to 290 °C

Prompt line: Quick check: melting point of Cl.Cn1c2c(c3ccc(-n4ccc(OCc5ccc(F)cc5F)cc4=O)nc31)CN1CCCC1C2 (stereo not drawn) ?
Response line: 140 to 150 °C
